- methodDescription: Solubility versus pH at ~22-24° C.
- Type: physicochemical
- runConditions: 23 °C, simulated gastric fluid; pH 1.0, ~22-24° C.
recordedEndpoint: solubility (mg/mL)

1 = N[C@@H](Cc1ccc(O)c(O)c1)C(=O)O
2 = C[C@@](Cc1ccc(O)c(O)c1)(NN)C(=O)O
Q: Problem: Given the entries 1 and 2 , determine which has the lower reported solubility. State your choice using its label.
A: 1
(1: 5.38 mg/mL, 2: 21.4 mg/mL)

----------
- methodDescription: Solubility versus pH at ~22-24° C.
- Assay type: physicochemical
- runConditions: 23 °C, aqueous buffer; pH 5.0, ~22-24° C.
recordedEndpoint: solubility (µg/mL)

1 = C[C@@](Cc1ccc(O)c(O)c1)(NN)C(=O)O [Carbidopa, carbidopa]
2 = N[C@@H](Cc1ccc(O)c(O)c1)C(=O)O [Levodopa, levodopa]
Q: Pick one, 1 or 2 : lowest reported solubility. Use the label to indicate which entry you chose.
A: 1
